Assay: inhibitors of larval lipid processing in zebrafish, primary screen, whole organism, PED6 fluorescence, gall bladder and intestine (AID 686);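 further: larvae 5 to 7 days old with five fish per well; signal comes from phospholipase A2 cleavage of quenched PED6 carried via bile; overnight exposure to compound and PED6 before scoring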
Conditions: Zebrafish larvae PED6 lipid processing, fluorescence scoring; screened at 20 µM (by protocol)
Active and inactive are the calls of the source.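 How the source made its calls: active means a full or partial loss of lipid-probe fluorescence in the fish gall bladder, intestine or both, judged by eye; inactive means no fluorescence loss, or compound toxic to the fish.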
Outcomes: yes for active, no for inactive

Compound	Classification
Oc1ccc(/C=C/c2cc(O)cc(O)c2)cc1	no
Cc1cc(=O)oc(C)c1C(=O)NCCN1CCOCC1	no
Cc1cccc(N(C)C(=S)Oc2ccc3ccccc3c2)c1	yes
COc1ccc(-c2cn3ccsc3n2)cc1	no
Cc1nc(Nc2ncc3c(n2)CC(C)(C)CC3=O)nc2ccccc12	no
O=C(O)c1cccnc1Nc1cccc(C(F)(F)F)c1	no
COc1cc(C(=O)Nc2nccs2)cc(OC)c1OC	no
Cc1nnc(C)n1/N=C/c1cc(Br)cc(Br)c1O	no
Cc1ccccc1-c1nn2c(-c3ccccc3)nnc2s1	no
CCOC(=O)CSc1nc(NC#N)nc(N(CC)CC)n1	no
CC(C)(C)n1cnc2cc(NS(=O)(=O)c3ccc(Br)cc3)ccc21	no
CCOC(=O)CC(=O)CSc1[nH]c(=O)cc(C)c1C#N	no
CCCOc1cccc(C2/C(=C(/O)c3ccccc3)C(=O)C(=O)N2CCN(C)C)c1 (centres undefined)	no
Cn1c2c(c(=O)n(C)c1=O)C(NC(=O)C(C)(C)C)(C(F)(F)F)C(=O)N2 (centres undefined)	no
CC1(C)O[C@@H]2C[C@H]3[C@@H]4C[C@H](F)C5=CC(=O)CC[C@]5(C)[C@H]4[C@@H](O)C[C@]3(C)[C@]2(C(=O)CO)O1	no
O=C(CCC(=O)CCN1CCCCC1)CCN1CCCCC1	no
Clc1cccc(-c2nn3c(COc4ccccc4)nnc3s2)c1	no
Nc1nnnn1CC(=O)OCc1cccc(Br)c1	no
CC(O)Cn1cnc2c1c(=O)n(C)c(=O)n2C (centres undefined)	no
CCOC(=O)CCc1c(C)c(C#N)c2nc3ccccc3n2c1-n1ccnc1C	no
O=C(O)c1ccccc1S	no
CCSc1nc(O)c(C2OC(=O)c3c2ccc(OC)c3OC)c(=O)n1-c1ccccc1 (centres undefined)	no
CCOC(=O)CC(=O)CSc1nc(N)c(C#N)c(-c2ccc(F)cc2)c1C#N	no
N#C/C(=C\c1ccc(O)c(O)c1)C(=O)NCCCc1ccccc1	no

----------
Reported slope values for a set of molecules
Biological target: Alpha-2C adrenergic receptor (Homo sapiens)
Test: modulators of alpha2C/GIRK thallium flux, primary screen, cell-based, HEK293 alpha2C/GIRK1/2 (AID 624);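 further: slope of fluorescence ratio to pre-addition baseline per second over 15 to 24 s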
Conditions: thallium flux BTC fluorescence, at 10 µM, actives lie on both sides

Molecule	slope
O=C(CCN1CCCCC1)Nc1cccc(Cl)c1	0.0069
CCNc1nc(NC(C)C)nc(N(C#N)C(C)C(=O)N(C)C)n1 (stereo unspecified)	0.00585
CCN(CC)c1ccc(-c2nn3c(-c4cccnc4)nnc3s2)cc1	0.00633
Cc1ccc(SCc2[nH]nc3c2C(c2ccc(C)o2)C(C#N)=C(N)O3)cc1 (stereo unspecified)	0.0059
CCCCN(CCCC)CCCOC(=O)c1ccc(N)cc1	0.00529
COc1ccccc1N1CCN(C2CCN(C(=O)c3cccs3)CC2)CC1	0.00342
CC1(C)Cc2c(c(-c3ccccc3)nc3[nH][nH]c(=O)c23)CO1	0.00403
O=C(O)C1CCCCN1S(=O)(=O)c1cccc2nsnc12 (stereo unspecified)	0.0076
COc1ccc(N2CCN(c3nc4c(c(=O)[nH]c(=O)n4C)n3CCCc3ccccc3)CC2)cc1	0.0083
CCN1CC2=C(OC(N)=C(C#N)C2c2ccccc2)/C(=C\c2ccccc2)C1 (stereo unspecified)	0.00402
COC(=O)c1ccc(C2/C(=C(/O)c3ccc(OC)cc3)C(=O)C(=O)N2c2cc(C)on2)cc1 (stereo unspecified)	0.00772

----------
Biological target: Voltage-gated potassium channel subunit beta-2 (Rattus norvegicus) (UniProt P62483)
Sequence (P62483 whole entry, looked up): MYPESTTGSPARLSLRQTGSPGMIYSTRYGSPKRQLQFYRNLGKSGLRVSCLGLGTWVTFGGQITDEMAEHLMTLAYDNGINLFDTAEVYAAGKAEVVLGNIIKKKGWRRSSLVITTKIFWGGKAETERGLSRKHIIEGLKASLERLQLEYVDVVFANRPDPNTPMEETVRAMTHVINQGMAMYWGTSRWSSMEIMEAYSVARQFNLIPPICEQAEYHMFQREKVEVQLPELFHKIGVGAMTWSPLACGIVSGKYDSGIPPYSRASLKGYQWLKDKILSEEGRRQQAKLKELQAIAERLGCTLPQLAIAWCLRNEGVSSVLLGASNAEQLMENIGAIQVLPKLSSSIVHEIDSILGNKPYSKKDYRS
Test: KvBeta enzyme negative modulators, primary screen, biochemical, NADPH fluorescence (AID 622);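 further: slope of raw intensity against log time taken from 70 to 1610 s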
Details: recombinant KvBeta, 4-cyanobenzaldehyde reduction, at 10 µM, stronger effect = higher value
Measured fluorescence slope determines class: bottom (below -0.5), middle (-0.5 to below -0.4), top (-0.4 or more)

Molecule	Classification
Cc1cc(C)n(-c2nnc(C)n2/N=C/c2ccccc2F)n1	bottom
CC(=O)OCC(=O)[C@H]1CC[C@H]2[C@@H]3CC=C4C[C@@H](O)CC[C@]4(C)[C@H]3CC[C@]12C	middle
O=C(CNC1=NCCC1)c1ccc2c(c1)OCCO2	middle
CC(=O)OCC(=O)[C@@]1(O)CC[C@H]2[C@@H]3CCC4=CC(=O)C=C[C@]4(C)[C@@]3(Cl)[C@@H](Cl)C[C@@]21C	middle
CC(=O)Nc1ccc(-c2cc3ccccc3o2)cc1	middle
Cc1nnc2c(NC(C)C)nc3ccccc3n12	top
O=S(=O)(O)c1nc2ccccc2n1Cc1ccc(Cl)cc1Cl	top
Oc1ccccc1-c1nc(NCCN2CCOCC2)c2ccccc2n1	middle
Cn1c(=O)c2c(nc(Br)n2CCSc2ncccn2)n(C)c1=O	top
CCCCCCc1cc2cc(C(=O)NC)c(=N)oc2cc1O	middle
N#CC1=C(SCc2ccccc2)NC2=C(C(=O)CCC2)C1c1ccc2c(c1)OCO2 (stereo not drawn)	bottom
CCCc1nnc(NC(=O)c2c(O)c3c([nH]c2=O)CCCC3)s1	middle
CC(=O)C(=[N+]=[N-])C(=O)NCc1ccccc1	bottom
CC(=O)NC1(C(F)(F)F)C(=O)Nc2c1c(=O)n(C)c(=O)n2C (stereo not drawn)	bottom
CCn1cc(C(=O)NCCc2ccccc2)c(=O)c2cc(F)c(N3CCN(C)CC3)cc21	top
Cc1cc(OCCN2CCCCC2)nc2ccccc12	top
CCCOc1ccc(Cn2c(O)cc(=O)[nH]c2=O)cc1	top
CCOC(=O)CSC1=C(C#N)C(c2ccc3c(c2)OCO3)CC(=O)N1 (stereo not drawn)	middle
O=C(CC(c1ccccc1)c1ccco1)N1CCOCC1 (stereo not drawn)	middle
CCN(CC)S(=O)(=O)c1ccc2c(c1)c(C(=O)O)cn2C	bottom
COc1ccccc1C(=O)NC(=Nc1nc2ccccc2o1)NC(=O)c1ccccc1OC	bottom
CCOc1cc(C2Nc3ccccc3C(=O)N2c2ccccc2OC)ccc1O (stereo not drawn)	top

----------
Assay: DUSP6 inhibitors restoring Erk phosphorylation by chemical complementation, primary imaging in DUSP6-transfected HeLa (AID 609)
Conditions: HeLa MKP-3 transfected, phospho-Erk imaging KS statistic; measured here: nuclear pErk red intensity z-score; at 10 µM; stronger effect = higher value; cells stimulated with TPA for 15 min
Rule: z-score of -0.7 or more gives 1 (yes); anything lower gives 0 (no).

Compound	Classification
CCCCC[C@H](O)/C=C/[C@H]1C=CC(=O)[C@@H]1C/C=C\CCCC(=O)O	0 (no)
CC(C)Cc1nc(N2CCCCC2)c(C#N)c2c1CCC2	1 (yes)
O=C(O)c1cc2n(n1)C(C(F)(F)F)CC(c1ccccc1)N2 (stereo unspecified)	1 (yes)
Cc1cc(C)n(Cc2ccc(C(=O)NCCC3=CCCCC3)o2)n1	1 (yes)
Clc1ccc(-c2nnc3sc(Cc4cccs4)nn23)cc1	0 (no)
CC1(C)Cc2c(C#N)c(NCC3CCCO3)nc(-c3ccco3)c2CO1 (stereo unspecified)	0 (no)
CCSc1nnc(NC(=O)C(CC)(C(F)(F)F)C(F)(F)F)s1	1 (yes)
COc1cccc(-c2nc(NCCN3CCOCC3)c3ccccc3n2)c1O	1 (yes)
CCc1nc2sc3c(c2c(=O)o1)CCCC3	1 (yes)
CC(=O)O[C@]1(C(C)=O)CC[C@H]2[C@@H]3C=C(C)C4=CC(=O)CC[C@]4(C)[C@H]3CC[C@@]21C	0 (no)
CCOC(=O)Cn1c(SC)nc2sc3c(c2c1=O)CC(C)(C)OC3	1 (yes)

----------
Reported inhibition values for a set of molecules
Target: Dual specificity protein phosphatase 6 (Homo sapiens)
Experiment: DUSP6 inhibitors restoring Erk phosphorylation by chemical complementation, primary imaging in DUSP6-transfected HeLa (AID 609);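 on inhibition: phospho-Erk level distribution per well compared with pooled transfected vehicle control wells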
Conditions: HeLa MKP-3 transfected, phospho-Erk imaging KS statistic; at 10 µM; stronger effect = higher value; cells stimulated with TPA for 15 min

Molecule	Measured Target	Units Label	inhibition
CC(=O)C1=C(O)C(=O)N(c2ccc(C(=O)O)cc2)C1c1ccccc1 (stereo not given)	Dual specificity protein phosphatase 6 (Homo sapiens)	%	2.46
CCN(CC)CCCN1C(=O)C(=O)/C(=C(/O)c2ccc(Cl)cc2)C1c1ccccn1 (stereo not given)	Dual specificity protein phosphatase 6 (Homo sapiens)	%	-15.8
CCCn1c(=O)[nH]c(=O)c2[nH]cnc21	Dual specificity protein phosphatase 6 (Homo sapiens)	%	19
CCCCOC(=O)CSc1nc(N)c(C#N)c(-c2ccc(OC)cc2)c1C#N	Dual specificity protein phosphatase 6 (Homo sapiens)	%	3.66
O=C(O)CCCCCCC1C(=O)NC(=O)N1CCC(O)C1CCCCC1 (stereo not given)	Dual specificity protein phosphatase 6 (Homo sapiens)	%	-0.493
COc1ccc(C(CC(=O)O)NC(=O)OC(C)(C)C)cc1 (stereo not given)	Dual specificity protein phosphatase 6 (Homo sapiens)	%	-7.01
CCCOc1ccc(/C(O)=C2/C(=O)C(=O)N(CCN(C)C)C2c2ccncc2)cc1 (stereo not given)	Dual specificity protein phosphatase 6 (Homo sapiens)	%	-4.7
COc1cccc(-c2nnc3sc(-c4ccco4)nn23)c1	Dual specificity protein phosphatase 6 (Homo sapiens)	%	8.31
COc1ccc(/C(O)=C2\C(=O)C(=O)N(CCN(C)C)C2c2cccc(OC)c2OC)cc1 (stereo not given)	Dual specificity protein phosphatase 6 (Homo sapiens)	%	9.61
CCCCc1c(O)nc(SCCN(C)C)n(-c2ccccc2)c1=O	Dual specificity protein phosphatase 6 (Homo sapiens)	%	12.3
COc1ccccc1-c1nnc2sc(C3CCCCC3)nn12	Dual specificity protein phosphatase 6 (Homo sapiens)	%	-0.674
Cc1cc2c(c(=O)n1Cc1cccnc1)C(c1ccccc1)C(C#N)=C(N)O2 (stereo not given)	Dual specificity protein phosphatase 6 (Homo sapiens)	%	-6.06
CC(=O)O[C@H]1C(=O)[C@]2(C)[C@H]([C@H](OC(=O)c3ccccc3)[C@]3(O)C[C@H](OC(=O)[C@H](O)[C@@H](NC(=O)c4ccccc4)c4ccccc4)C(C)=C1C3(C)C)[C@]1(OC(C)=O)CO[C@@H]1C[C@@H]2O	Dual specificity protein phosphatase 6 (Homo sapiens)	%	-2.46
CN(C)c1nc2n(c(=S)n1)CCS2	Dual specificity protein phosphatase 6 (Homo sapiens)	%	16.1
O=c1[nH]cnc2cc(-c3ccccc3)sc12	Dual specificity protein phosphatase 6 (Homo sapiens)	%	21
CCCCCCn1cc(C(=O)O)c(=O)c2ccccc21	Dual specificity protein phosphatase 6 (Homo sapiens)	%	-7.28
Cc1ccc(C2/C(=C(\O)c3cnn(-c4ccccc4)c3C)C(=O)C(=O)N2CCN(C)C)o1 (stereo not given)	Dual specificity protein phosphatase 6 (Homo sapiens)	%	5.26
CC1(C)CC(=O)C=C(NCc2ccncc2)C1	Dual specificity protein phosphatase 6 (Homo sapiens)	%	13.9
COCCc1ccc(OCC(O)CNC(C)C)cc1 (stereo not given)	Dual specificity protein phosphatase 6 (Homo sapiens)	%	8
CC(=O)Nc1ccc(Oc2ccc3nc(C)[nH]c3c2)cc1	Dual specificity protein phosphatase 6 (Homo sapiens)	%	13.7
Cc1ccc(C(=O)CSC2=C(C#N)C(c3ccco3)C3=C(CCCC3=O)N2)cc1 (stereo not given)	Dual specificity protein phosphatase 6 (Homo sapiens)	%	1.42
Nc1nonc1-c1noc(N2CCOCC2)n1	Dual specificity protein phosphatase 6 (Homo sapiens)	%	-12.3
O=C(CSc1nnc(-c2ccco2)c(-c2ccco2)n1)Nc1ccccc1	Dual specificity protein phosphatase 6 (Homo sapiens)	%	1.6e-07
CCOC(=O)c1nc(N)c(C(=O)OCC)[nH]1	Dual specificity protein phosphatase 6 (Homo sapiens)	%	18.2
Cc1cccc(COc2ccc(/C(O)=C3\C(=O)C(=O)N(CCN(C)C)C3c3ccncc3)cc2)c1 (stereo not given)	Dual specificity protein phosphatase 6 (Homo sapiens)	%	-1.75
CCOC(=O)c1sc(-n2[nH]c(C)cc2=O)nc1C	Dual specificity protein phosphatase 6 (Homo sapiens)	%	-10.1
O=C(O)c1cc2cc(F)ccc2[nH]1	Dual specificity protein phosphatase 6 (Homo sapiens)	%	-5.24
Cc1nc(Nc2ncc3c(n2)CCCC3=O)nc2ccccc12	Dual specificity protein phosphatase 6 (Homo sapiens)	%	9.42
Cc1onc(-c2ccccc2Cl)c1C(=O)N1CCN(c2nc3ccccc3s2)CC1	Dual specificity protein phosphatase 6 (Homo sapiens)	%	25.4
CSc1nc2sc3c(c2c(=O)n1C1CCCCC1)CCN(C)C3	Dual specificity protein phosphatase 6 (Homo sapiens)	%	9.82
Cc1nc(NS(=O)(=O)c2ccccc2)sc1NC(=O)OCCN(C)C	Dual specificity protein phosphatase 6 (Homo sapiens)	%	24.3
O=C(O)CC(C(=O)OCC1CCCO1)N1CCOCC1 (stereo not given)	Dual specificity protein phosphatase 6 (Homo sapiens)	%	10.5
CC1(C2(O)CC(c3ccccc3)ON2)CCCCC1 (stereo not given)	Dual specificity protein phosphatase 6 (Homo sapiens)	%	-6.06
COc1ccc(NC(=O)C2CSC3c4ccccc4C(=O)N23)cc1 (stereo not given)	Dual specificity protein phosphatase 6 (Homo sapiens)	%	-1.12
COC(=O)c1c(C)noc1-c1cc(C)on1	Dual specificity protein phosphatase 6 (Homo sapiens)	%	3.56
Cn1c(/C(C#N)=C/Nc2ccccn2)nc2ccccc21	Dual specificity protein phosphatase 6 (Homo sapiens)	%	5.26
Cc1ccc(OCc2nnc(NC(=O)c3ccco3)s2)c(C)c1	Dual specificity protein phosphatase 6 (Homo sapiens)	%	-1.12
Cc1c(/C(O)=C2\C(=O)C(=O)N(CCN(C)C)C2c2cccs2)cnn1-c1ccccc1 (stereo not given)	Dual specificity protein phosphatase 6 (Homo sapiens)	%	-5.26
COc1ccc(OC(=O)c2cc3ccccc3o2)cc1	Dual specificity protein phosphatase 6 (Homo sapiens)	%	-9.66
Cc1c(C(Nc2ccccn2)c2ccccc2)c(=O)n(-c2ccccc2)n1C (stereo not given)	Dual specificity protein phosphatase 6 (Homo sapiens)	%	-9.7
Cc1[nH]c(=O)[nH]c(=O)c1S(=O)(=O)N1CCCC1	Dual specificity protein phosphatase 6 (Homo sapiens)	%	-3.98
CCOC(=O)c1c(C(F)(F)C(F)(F)C(F)(F)C(F)(F)F)n[nH]c1C	Dual specificity protein phosphatase 6 (Homo sapiens)	%	11.3
CCc1cccc(CC)c1N(COC)C(=O)Cn1nnc2ccccc21	Dual specificity protein phosphatase 6 (Homo sapiens)	%	20.8
COc1ccccc1C1(CC(=O)N2CCOCC2)CCOC(C(C)C)C1 (stereo not given)	Dual specificity protein phosphatase 6 (Homo sapiens)	%	5.95
COC(=O)C1=C(N)Oc2cc(C)[nH]c(=O)c2C1c1ccncc1 (stereo not given)	Dual specificity protein phosphatase 6 (Homo sapiens)	%	11.4
